- target_system: T1, human CD8 on human T cells (human, UniProt P01732 22-235)
- T1 construct: whole, on cells; the antibodies were raised against human CD8 alpha; also called CD8 on human CD8+ T cells; hCD8
- T1 sequence (P01732 22-235): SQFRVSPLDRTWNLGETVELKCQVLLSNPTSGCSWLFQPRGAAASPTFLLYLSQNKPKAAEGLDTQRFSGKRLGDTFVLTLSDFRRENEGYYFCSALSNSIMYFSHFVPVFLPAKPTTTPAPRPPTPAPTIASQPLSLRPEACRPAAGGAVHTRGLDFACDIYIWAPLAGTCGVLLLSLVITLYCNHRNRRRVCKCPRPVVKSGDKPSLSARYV
- assay_overview: flow cytometry on human CD8+ T cells, titration
measurement_type: Fold Change to Parental Apparent KD (fold)
Note: unit fold is implicit; provide only the numeric part.

Task: Quickly give me recorded Fold Change to Parental Apparent KD for humanized 02A01-VH6-VK1 (antibody, human IgG1, V domains shown, human IgG1 format; also called 02-VH6/VK1) VH: EVQLVQSGAEVKKPGATVKISCKASGYTFTDFTMHWVQQAPGKGLEWIGLVNPNNGGNIYAEKFQGRVTLTVDTSTSTAYMELSSLRSEDTAVYYCGRVPLYTSHGMDYWGQGTLVTVSS VL: EIVLTQSPATLSVSPGERATISCRASESVDSYDINSMHWYQQKPGQPPRLLIYRASHLQSGIPARFSGSGSRTDFTLTISSVEPEDFATYYCQQSNEDPLTFGQGTKLEIK
Output: 1.02

Task: Give Fold Change to Parental Apparent KD for the following binder: humanized 02A01-VH1-VK4 (antibody, human IgG1, V domains shown, human IgG1 format; also called 02-VH1-VK4) VH: EVQLVQSGPEVVKPGATLKISCKASGYTFTDFTMHWVKQAPGKSLEWIGLVNPNNGGNIYNQNFKGRATLTVDTSTSTAYMELSSLRSEDTSVYYCGRVPLYTSHGMDYWGQGTLVTVSS VL: EIVLTQSPATLSVSPGERATISCRASESVDSYDINSMHWYQQKPGQAPRLLIYDASNRATGIPARFSGSGSRTDFTLTISSVEPEDFATYYCQQSNEDPLTFGQGTKLEIK
Output: 0.89

Task: Specify measured Fold Change to Parental Apparent KD for humanized 02A01-VH3-VK4 (antibody, human IgG1, V domains shown, human IgG1 format; also called 02-VH3-VK4) VH: EVQLVQSGAEVKKPGATLKISCKASGYTFTDFTMHWVQQAPGKGLEWIGLVNPNNGGNIYAEKFQGRATLTVDTSTSTAYMELSSLRSEDTSVYYCGRVPLYTSHGMDYWGQGTLVTVSS VL: EIVLTQSPATLSVSPGERATISCRASESVDSYDINSMHWYQQKPGQAPRLLIYDASNRATGIPARFSGSGSRTDFTLTISSVEPEDFATYYCQQSNEDPLTFGQGTKLEIK .
Output: 1.16
